The reported numbers originate from patent US20250277012A1.

Biological target: ferroportin (Homo sapiens)
Sequence (Q9NP59 1-571): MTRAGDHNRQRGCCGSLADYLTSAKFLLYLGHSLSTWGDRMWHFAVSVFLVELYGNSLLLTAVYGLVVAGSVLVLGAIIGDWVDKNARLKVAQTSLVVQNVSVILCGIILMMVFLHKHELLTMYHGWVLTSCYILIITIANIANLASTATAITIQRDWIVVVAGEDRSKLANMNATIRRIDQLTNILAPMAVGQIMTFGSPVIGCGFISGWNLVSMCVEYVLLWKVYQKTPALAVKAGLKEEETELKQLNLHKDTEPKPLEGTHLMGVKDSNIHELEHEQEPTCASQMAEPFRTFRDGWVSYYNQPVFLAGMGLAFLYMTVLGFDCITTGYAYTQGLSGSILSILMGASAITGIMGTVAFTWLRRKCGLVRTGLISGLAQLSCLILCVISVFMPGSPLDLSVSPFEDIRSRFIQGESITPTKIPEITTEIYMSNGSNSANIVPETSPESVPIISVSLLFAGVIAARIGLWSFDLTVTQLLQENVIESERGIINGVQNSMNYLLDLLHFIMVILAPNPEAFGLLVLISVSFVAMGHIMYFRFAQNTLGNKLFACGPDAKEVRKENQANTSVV
Experiment: T47D cell-based ferroportin internalization assay in presence of mouse serum albumin (MSA)
Parameters: a human breast carcinoma adherent cell line which endogenously expresses ferroportin; host or cells: T47D
Details: T47D cells, 0.5% mouse serum albumin, 1 hr incubation
Positions of bridges follow the written chain, without caps; N, C: chain ends. Non-standard residues stand in square brackets, D forms with d. Residues, ends and D or L forms follow the SMILES beside them. Groups on a side chain read outwards from the residue. *: point of attachment. C18 diacid = O=C(O)CCCCCCCCCCCCCCCCC(=O)*; Dip = N[C@H](C(=O)O)C(c1ccccc1)c1ccccc1; Palmitoyl = CCCCCCCCCCCCCCCC(=O)*; β3hF = N[C@H](CC(=O)O)Cc1ccccc1; Isovaleryl = CC(C)CC(=O)*; AEEA = NCCOCCOCC(=O)O; Ahx = NCCCCCC(=O)O
Listing: IC50 of selected compounds

compound	subject_of_test	IC50
CCCCCCCCCCCCCCCC(=O)NCCCCCC(=O)NCCCC[C@H](NC(=O)C[C@H](Cc1ccccc1)NC(=O)[C@@H](CCCCN)NC(=O)[C@@H](NC(=O)[C@H](C)NC(=O)[C@@H]1CSSC[C@H](NC(=O)[C@H](CCC(=O)O)NC(=O)CC(C)C)C(=O)N[C@@H](Cc2c[nH]cn2)C(=O)N[C@@H](C(c2ccccc2)c2ccccc2)C(=O)N1)[C@@H](C)CC)C(=O)N[C@H](CCCCN)C(=O)N[C@@H](C)C(N)=O [Compd 45] (Isovaleryl-ECH[Dip]CAI[dK][β3hF]K([Ahx-Palmitoyl])[dK]A-NH2; disulfide 2-5)	ferroportin (Homo sapiens)	1 to 10 nM
CC[C@H](C)[C@H](NC(=O)[C@@H]1CSSC[C@H](NC(=O)[C@@H](NC(=O)[C@H](Cc2c[nH]cn2)NC(=O)[C@@H](NC(=O)[C@H](CCC(=O)O)NC(=O)CC(C)C)[C@@H](C)O)C(c2ccccc2)c2ccccc2)C(=O)N1)C(=O)N[C@@H](CCCCNC(=O)COCCOCCNC(=O)COCCOCCNC(=O)CCCCCNC(=O)CCCCCCCCCCCCCCCCC(=O)O)C(=O)N[C@H](CC(=O)N[C@H](CCCCN)C(N)=O)Cc1ccccc1 [Compd 21] (Isovaleryl-ETH[Dip]CCIK([AEEA-AEEA-Ahx-C18 diacid])[β3hF][dK]-NH2; disulfide 5-6)	ferroportin (Homo sapiens)	10 to 100 nM
CCCCCCCCCCCCCCCC(=O)NCCCCCC(=O)NCCCC[C@H](NC(=O)[C@@H]1CSSC[C@H](NC(=O)[C@@H]2CCCN2C(=O)[C@@H](NC(=O)[C@H](Cc2c[nH]cn2)NC(=O)[C@@H](NC(=O)[C@H](CCC(=O)O)NC(=O)CC(C)C)[C@@H](C)O)C(c2ccccc2)c2ccccc2)C(=O)N1)C(=O)N[C@H](CC(=O)N[C@H](CCCCN)C(N)=O)Cc1ccccc1 [Compd 39] (Isovaleryl-ETH[Dip]PCCK([Ahx-Palmitoyl])[β3hF][dK]-NH2; disulfide 6-7)	ferroportin (Homo sapiens)	1 to 10 nM

Next:
Item under review: CCCCCCCCCCCCCCCC(=O)NCCCCCC(=O)NCCCC[C@H](NC(=O)C[C@H](Cc1ccccc1)NC(=O)[C@@H]1CSSC[C@H](NC(=O)CC(C)C)C(=O)N[C@@H]([C@@H](C)O)C(=O)N[C@@H](Cc2c[nH]cn2)C(=O)N[C@@H](C(c2ccccc2)c2ccccc2)C(=O)N2CCC[C@H]2C(=O)N[C@@H](C)C(=O)N[C@@H]([C@@H](C)CC)C(=O)N1)C(=O)N[C@H](CCCCN)C(N)=O [Compd 43] (Isovaleryl-CTH[Dip]PAIC[β3hF]K([Ahx-Palmitoyl])[dK]-NH2; disulfide 1-8) . Reported IC50?
> 500 nM

====

Target: UniProtKB Q9NP59
Sequence (Q9NP59 1-571): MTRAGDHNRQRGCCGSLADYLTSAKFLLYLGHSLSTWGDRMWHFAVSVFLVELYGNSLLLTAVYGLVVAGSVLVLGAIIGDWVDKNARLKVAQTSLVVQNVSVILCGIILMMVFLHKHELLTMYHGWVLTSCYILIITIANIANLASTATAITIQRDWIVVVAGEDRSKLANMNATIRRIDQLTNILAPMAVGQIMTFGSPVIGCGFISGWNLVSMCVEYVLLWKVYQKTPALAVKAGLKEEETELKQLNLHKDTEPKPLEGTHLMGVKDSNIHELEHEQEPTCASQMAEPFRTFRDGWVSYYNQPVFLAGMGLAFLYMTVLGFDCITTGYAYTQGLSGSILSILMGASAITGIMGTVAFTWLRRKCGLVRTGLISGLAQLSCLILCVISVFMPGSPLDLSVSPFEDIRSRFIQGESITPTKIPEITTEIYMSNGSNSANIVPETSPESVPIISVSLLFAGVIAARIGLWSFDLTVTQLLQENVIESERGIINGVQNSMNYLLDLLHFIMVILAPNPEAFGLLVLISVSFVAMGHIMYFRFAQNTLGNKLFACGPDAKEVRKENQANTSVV
Assay: T47D cell-based ferroportin internalization assay in presence of mouse serum albumin (MSA)
Set-up: a human breast carcinoma adherent cell line which endogenously expresses ferroportin; host or cells: T47D
Settings: T47D cells, 0.5% mouse serum albumin, 1 hr incubation
Starred links: 1 amine or outer side, 2 acyl side, 3 side chain; linkers in the order of their positions; H or OH if unused. Positions of bridges follow the written chain, without caps; N, C: chain ends. Non-standard residues stand in square brackets, D forms with d. Residues, ends and D or L forms follow the SMILES beside them. Groups on a side chain read outwards from the residue. *: point of attachment. C18 diacid = O=C(O)CCCCCCCCCCCCCCCCC(=O)*; Dip = N[C@H](C(=O)O)C(c1ccccc1)c1ccccc1; γGlu = O=C(O)[C@H](CCC(=O)[*:2])N[*:1]; Palmitoyl = CCCCCCCCCCCCCCCC(=O)*; β3hF = N[C@H](CC(=O)O)Cc1ccccc1; Isovaleryl = CC(C)CC(=O)*; Dap = NC[C@H](N)C(=O)O; AEEA = NCCOCCOCC(=O)O; Ahx = NCCCCCC(=O)O
property_label: IC50

Under UniProtKB Q9NP59: IC50 value of CCCCCCCCCCCCCCCC(=O)NCCCCCC(=O)NCCCC[C@H](NC(=O)[C@@H]1CSSC[C@H](NC(=O)[C@@H]2CCCN2C(=O)[C@@H](NC(=O)[C@H](Cc2c[nH]cn2)NC(=O)[C@@H](NC(=O)[C@H](CCC(=O)OC)NC(=O)CC(C)C)[C@@H](C)O)C(c2ccccc2)c2ccccc2)C(=O)N1)C(=O)N[C@H](CC(=O)N[C@H](CCCCN)C(N)=O)Cc1ccccc1 [Compd 40] (Isovaleryl-E(OMe)TH[Dip]PCCK([Ahx-Palmitoyl])[β3hF][dK]-NH2; disulfide 6-7) ?
1 to 10 nM

Under UniProtKB Q9NP59: IC50 value of CC(C)CC(=O)N[C@@H](CCC(=O)O)C(=O)N[C@H](C(=O)N[C@@H](Cc1c[nH]cn1)C(=O)N[C@H](C(=O)N1CCC[C@H]1C(=O)N[C@H]1CSSC[C@@H](C(=O)N[C@@H](CCCCNC(=O)COCCOCCNC(=O)COCCOCCNC(=O)CC[C@H](NC(=O)CCCCCCCCCCCCCCCCC(=O)O)C(=O)O)C(=O)N[C@H](CC(=O)N[C@H](CCCCN)C(N)=O)Cc2ccccc2)NC1=O)C(c1ccccc1)c1ccccc1)[C@@H](C)O [Compd ID 31] (Isovaleryl-ETH[Dip]PCCK([AEEA-AEEA-γGlu-C18 diacid])[β3hF][dK]-NH2; disulfide 6-7) ?
10 to 100 nM

Under UniProtKB Q9NP59: IC50 value of COC(=O)CC[C@H](NC(=O)CC(C)C)C(=O)N[C@H](C(=O)N[C@@H](Cc1c[nH]cn1)C(=O)N[C@H](C(=O)N1CCC[C@H]1C(=O)N[C@H]1CSSC[C@@H](C(=O)N[C@@H](CCCCNC(=O)COCCOCCNC(=O)COCCOCCNC(=O)[C@H](CN)NC(=O)CCCCCCCCCCCCCCCCC(=O)O)C(=O)N[C@H](CC(=O)N[C@H](CCCCN)C(N)=O)Cc2ccccc2)NC1=O)C(c1ccccc1)c1ccccc1)[C@@H](C)O [Compd ID 42] (Isovaleryl-E(OMe)TH[Dip]PCCK([AEEA-AEEA-Dap-C18 diacid])[β3hF][dK]-NH2; disulfide 6-7) ?
10 to 100 nM

Under UniProtKB Q9NP59: IC50 value of CC[C@H](C)[C@H](NC(=O)[C@@H]1CSSC[C@H](NC(=O)[C@@H](NC(=O)[C@H](Cc2c[nH]cn2)NC(=O)[C@@H](NC(=O)[C@H](CCC(=O)O)NC(=O)CC(C)C)[C@@H](C)O)C(c2ccccc2)c2ccccc2)C(=O)N1)C(=O)N[C@@H](CCCCNC(=O)COCCOCCNC(=O)COCCOCCNC(=O)CC[C@H](NC(=O)CCCCCCCCCCCCCCCCC(=O)O)C(=O)O)C(=O)N[C@H](CC(=O)N[C@H](CCCCN)C(N)=O)Cc1ccccc1 [Compd 30] (Isovaleryl-ETH[Dip]CCIK([AEEA-AEEA-γGlu-C18 diacid])[β3hF][dK]-NH2; disulfide 5-6) ?
10 to 100 nM
